Target: T1, Bcl-2, P10415
T1 chain: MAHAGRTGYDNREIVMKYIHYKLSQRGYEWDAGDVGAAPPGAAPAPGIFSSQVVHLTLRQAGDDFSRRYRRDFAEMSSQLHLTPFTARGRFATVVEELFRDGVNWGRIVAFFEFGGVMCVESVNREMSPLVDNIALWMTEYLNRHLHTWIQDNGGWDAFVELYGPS
Test: fluorescence polarisation, direct titration of receptor into 10 nM labelled peptide
pKd: −log10 of the molar value.
Reported endpoint: pKd

The examples below pair each entry with its known result.
[
  {
    "Binder": "FVGYNSTGAELRHWSDMLANPRRPIA [SYT1]",
    "Readout value": "< 4.00"
  },
  {
    "Binder": "FSKREKLVEILRNIGDERTMVFVETK [DDX4]",
    "Readout value": "< 5.52"
  },
  {
    "Binder": "KIETTPESRYLAQIGDSVSLTCSTTG [VCAM1]",
    "Readout value": "< 5.52"
  }
]

Exercise: Given the binder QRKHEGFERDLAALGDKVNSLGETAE [SPTAN1] , what is its reported pKd?
Solution: < 5.52

Exercise: Now consider SSLSDGLPVHLANIADELTQKKKMFK [AGBL2] and answer again.
Solution: < 4.00

Exercise: Now consider NATHEEVVHLLRNAGDEVTITVEYLR [SNTG2] and answer again.
Solution: < 5.52
